Reference for the values: paper PMC4336329

Let's look at some molecules and their measured hERG current change (%, negative = inhibition) at 10uM.
# assayed_system: human ether-à-go-go-related gene (hERG) potassium channel (human);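 further: peak tail current of the secondary pulse compared with the same well before compound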
# Sequence (Q12809 whole entry, looked up): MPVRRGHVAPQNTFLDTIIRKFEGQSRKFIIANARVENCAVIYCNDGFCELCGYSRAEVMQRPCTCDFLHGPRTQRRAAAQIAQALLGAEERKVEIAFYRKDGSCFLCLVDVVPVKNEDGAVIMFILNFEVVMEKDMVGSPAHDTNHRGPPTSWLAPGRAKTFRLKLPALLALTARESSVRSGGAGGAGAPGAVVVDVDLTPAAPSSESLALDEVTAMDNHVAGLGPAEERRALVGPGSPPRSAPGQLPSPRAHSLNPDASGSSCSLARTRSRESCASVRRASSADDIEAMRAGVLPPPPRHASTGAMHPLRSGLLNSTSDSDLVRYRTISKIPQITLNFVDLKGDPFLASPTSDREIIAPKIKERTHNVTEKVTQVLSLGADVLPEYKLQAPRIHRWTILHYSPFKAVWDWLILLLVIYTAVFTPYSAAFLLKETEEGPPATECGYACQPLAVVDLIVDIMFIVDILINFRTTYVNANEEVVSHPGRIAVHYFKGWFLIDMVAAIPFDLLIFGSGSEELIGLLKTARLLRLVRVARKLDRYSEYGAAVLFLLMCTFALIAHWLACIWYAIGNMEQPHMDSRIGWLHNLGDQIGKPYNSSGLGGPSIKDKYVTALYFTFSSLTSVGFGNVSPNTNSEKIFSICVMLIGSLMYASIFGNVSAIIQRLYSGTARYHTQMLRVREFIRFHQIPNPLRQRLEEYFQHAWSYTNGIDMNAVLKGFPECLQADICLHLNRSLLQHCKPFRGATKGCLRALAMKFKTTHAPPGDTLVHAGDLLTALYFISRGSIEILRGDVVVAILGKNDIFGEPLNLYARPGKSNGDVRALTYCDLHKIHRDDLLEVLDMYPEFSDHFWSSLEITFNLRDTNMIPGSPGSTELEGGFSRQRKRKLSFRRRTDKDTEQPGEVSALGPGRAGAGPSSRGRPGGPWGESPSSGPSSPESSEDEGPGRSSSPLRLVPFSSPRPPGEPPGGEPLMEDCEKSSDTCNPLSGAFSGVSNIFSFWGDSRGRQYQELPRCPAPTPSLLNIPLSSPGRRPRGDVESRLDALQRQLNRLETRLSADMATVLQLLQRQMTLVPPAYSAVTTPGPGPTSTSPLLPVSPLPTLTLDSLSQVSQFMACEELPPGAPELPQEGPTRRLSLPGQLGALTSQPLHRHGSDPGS
# procedure_details: primary screen, population patch clamp on CHO cells stably expressing hERG; higher = less effect of the substance
Screen size: about 310,000 compounds; about 14,000 (4.5%) showed an effect of 50% or more. Effects have a minus sign here. Only a selection was taken, and strong results are over-represented in it overall.
measured_quantity: hERG current change (%, negative = inhibition) at 10uM

[
  {
    "molecule": "Cc1ccc(C(=O)NCCc2nc3ccccc3[nH]2)cc1[N+](=O)[O-]",
    "assayed_system": "human ether-à-go-go-related gene (hERG) potassium channel (human)",
    "observed_value": "-31.8%"
  },
  {
    "molecule": "COc1ccc(Nc2nc(N)c([N+](=O)[O-])c(N3CCN(C)CC3)n2)cc1",
    "assayed_system": "human ether-à-go-go-related gene (hERG) potassium channel (human)",
    "observed_value": "-26.6%"
  },
  {
    "molecule": "CN1CCN(CC(O)COc2ccc(OCC(O)CN3CCN(C)CC3)cc2)CC1 (stereo not shown)",
    "assayed_system": "human ether-à-go-go-related gene (hERG) potassium channel (human)",
    "observed_value": "-7.27%"
  },
  {
    "molecule": "O=C(COc1ccccc1Br)NCCc1nc2ccccc2[nH]1",
    "assayed_system": "human ether-à-go-go-related gene (hERG) potassium channel (human)",
    "observed_value": "-65.3%"
  },
  {
    "molecule": "O=C(NCCCNC(=O)c1ccc(F)cc1)c1ccc(F)cc1",
    "assayed_system": "human ether-à-go-go-related gene (hERG) potassium channel (human)",
    "observed_value": "7.81%"
  },
  {
    "molecule": "Cc1ccc(NC(=S)N(CCN(C)C)Cc2cccs2)cc1C",
    "assayed_system": "human ether-à-go-go-related gene (hERG) potassium channel (human)",
    "observed_value": "-46.7%"
  },
  {
    "molecule": "O=C(COc1ccc([N+](=O)[O-])cc1)NCCc1nc2ccccc2[nH]1",
    "assayed_system": "human ether-à-go-go-related gene (hERG) potassium channel (human)",
    "observed_value": "-56.7%"
  },
  {
    "molecule": "N#Cc1ccc(OCC(O)CN2CCN(CC(O)COc3ccc(C#N)cc3)CC2)cc1 (stereo not shown)",
    "assayed_system": "human ether-à-go-go-related gene (hERG) potassium channel (human)",
    "observed_value": "-86.1%"
  },
  {
    "molecule": "COc1cccc(Nc2nc(N)c([N+](=O)[O-])c(N3CCOCC3)n2)c1",
    "assayed_system": "human ether-à-go-go-related gene (hERG) potassium channel (human)",
    "observed_value": "-14.2%"
  },
  {
    "molecule": "CN(CCOc1ccc(Br)cc1)CC(O)COc1ccc(C#N)cc1 (stereo not shown)",
    "assayed_system": "human ether-à-go-go-related gene (hERG) potassium channel (human)",
    "observed_value": "-16.3%"
  },
  {
    "molecule": "CC(C)(C)NC(=O)NC(=O)CN1CCN(c2ncc(C(F)(F)F)cc2Cl)CC1",
    "assayed_system": "human ether-à-go-go-related gene (hERG) potassium channel (human)",
    "observed_value": "-13.3%"
  },
  {
    "molecule": "O=C(Nc1nc2ccccc2[nH]1)c1ccc(Cl)c([N+](=O)[O-])c1",
    "assayed_system": "human ether-à-go-go-related gene (hERG) potassium channel (human)",
    "observed_value": "0.857%"
  },
  {
    "molecule": "N#Cc1ccc(OCC(O)CN2CCN(c3ncc(C(F)(F)F)cc3Cl)CC2)cc1 (stereo not shown)",
    "assayed_system": "human ether-à-go-go-related gene (hERG) potassium channel (human)",
    "observed_value": "-74.6%"
  },
  {
    "molecule": "CCN1CCN(c2nc(Nc3cccc(C)c3)nc(N)c2[N+](=O)[O-])CC1",
    "assayed_system": "human ether-à-go-go-related gene (hERG) potassium channel (human)",
    "observed_value": "-70.2%"
  },
  {
    "molecule": "CCOc1ccc(Nc2nc(N)c([N+](=O)[O-])c(N3CCN(CC)CC3)n2)cc1",
    "assayed_system": "human ether-à-go-go-related gene (hERG) potassium channel (human)",
    "observed_value": "-62.6%"
  },
  {
    "molecule": "CCc1ccc(/C=N/NC(=O)c2nnn(-c3nonc3N)c2CN2CCOCC2)cc1",
    "assayed_system": "human ether-à-go-go-related gene (hERG) potassium channel (human)",
    "observed_value": "-11.6%"
  },
  {
    "molecule": "O=C(NCCCCNC(=O)c1ccc(F)cc1)c1ccc(F)cc1",
    "assayed_system": "human ether-à-go-go-related gene (hERG) potassium channel (human)",
    "observed_value": "13.3%"
  },
  {
    "molecule": "OC(CN1CCN(c2ncc(C(F)(F)F)cc2Cl)CC1)c1ccccc1 (stereo not shown)",
    "assayed_system": "human ether-à-go-go-related gene (hERG) potassium channel (human)",
    "observed_value": "-58%"
  },
  {
    "molecule": "O=C(COc1ccc(Nc2ccccc2)cc1)Nc1ccncc1",
    "assayed_system": "human ether-à-go-go-related gene (hERG) potassium channel (human)",
    "observed_value": "-30.1%"
  },
  {
    "molecule": "O=C(NCCCN1CCN(CCCNC(=O)c2ccc(F)cc2)CC1)c1ccc(F)cc1",
    "assayed_system": "human ether-à-go-go-related gene (hERG) potassium channel (human)",
    "observed_value": "-51.1%"
  },
  {
    "molecule": "Nc1nonc1-n1nnc(C(=O)N/N=C/c2cccc(O)c2)c1CN1CCCC1",
    "assayed_system": "human ether-à-go-go-related gene (hERG) potassium channel (human)",
    "observed_value": "7.84%"
  },
  {
    "molecule": "Cc1nc(C)c(C(=O)C2=C(O)C(=O)N(CCN3CCOCC3)C2c2cccs2)s1 (stereo not shown)",
    "assayed_system": "human ether-à-go-go-related gene (hERG) potassium channel (human)",
    "observed_value": "5.12%"
  },
  {
    "molecule": "OC(CN1CCN(c2ccc(C(F)(F)F)cn2)CC1)c1ccccc1 (stereo not shown)",
    "assayed_system": "human ether-à-go-go-related gene (hERG) potassium channel (human)",
    "observed_value": "-26.5%"
  },
  {
    "molecule": "CCN1CCN(c2nc(Nc3ccc(C)c(C)c3)nc(N)c2[N+](=O)[O-])CC1",
    "assayed_system": "human ether-à-go-go-related gene (hERG) potassium channel (human)",
    "observed_value": "-75%"
  },
  {
    "molecule": "CC(C)c1ccc(/C=N/NC(=O)c2nnn(-c3nonc3N)c2CN2CCOCC2)cc1",
    "assayed_system": "human ether-à-go-go-related gene (hERG) potassium channel (human)",
    "observed_value": "-56.6%"
  },
  {
    "molecule": "Cc1ccc(NC(=O)c2ccn(C)n2)c(Br)c1",
    "assayed_system": "human ether-à-go-go-related gene (hERG) potassium channel (human)",
    "observed_value": "0.15%"
  },
  {
    "molecule": "CN(C)CC(O)COc1ccc(-c2ccc(C#N)cc2)cc1 (stereo not shown)",
    "assayed_system": "human ether-à-go-go-related gene (hERG) potassium channel (human)",
    "observed_value": "-57.5%"
  },
  {
    "molecule": "CCOc1c(Cl)cc(CNC(C)(C)CC(C)(C)C)cc1OC.Cl",
    "assayed_system": "human ether-à-go-go-related gene (hERG) potassium channel (human)",
    "observed_value": "-13.2%"
  },
  {
    "molecule": "C/C(=N\\N=C1\\NC(=O)C(CC(=O)Nc2ccc(Cl)cc2)S1)c1ccco1 (stereo not shown)",
    "assayed_system": "human ether-à-go-go-related gene (hERG) potassium channel (human)",
    "observed_value": "13%"
  },
  {
    "molecule": "Cc1ccc(NC(=S)N(CCCN2CCN(C)CC2)Cc2cccs2)cc1C",
    "assayed_system": "human ether-à-go-go-related gene (hERG) potassium channel (human)",
    "observed_value": "-57%"
  },
  {
    "molecule": "O=C(COc1ccccc1)NCCc1nc2ccccc2[nH]1",
    "assayed_system": "human ether-à-go-go-related gene (hERG) potassium channel (human)",
    "observed_value": "-6.21%"
  },
  {
    "molecule": "CCOc1ccc(Nc2nc(N)c([N+](=O)[O-])c(N3CCN(C)CC3)n2)cc1",
    "assayed_system": "human ether-à-go-go-related gene (hERG) potassium channel (human)",
    "observed_value": "-48.3%"
  },
  {
    "molecule": "CN(C)CC(O)COc1ccc(C(C)(C)c2ccc(OCC(O)CN(C)C)cc2)cc1.Cl (stereo not shown)",
    "assayed_system": "human ether-à-go-go-related gene (hERG) potassium channel (human)",
    "observed_value": "12.5%"
  },
  {
    "molecule": "O=C(NCc1nc2ccccc2[nH]1)c1ccc([N+](=O)[O-])cc1",
    "assayed_system": "human ether-à-go-go-related gene (hERG) potassium channel (human)",
    "observed_value": "-38.5%"
  },
  {
    "molecule": "CC1CCN(Cc2c(C(=O)N/N=C/c3ccc(C(C)C)cc3)nnn2-c2nonc2N)CC1",
    "assayed_system": "human ether-à-go-go-related gene (hERG) potassium channel (human)",
    "observed_value": "20.2%"
  },
  {
    "molecule": "Nn1c(COc2ccccc2)nnc1SCc1cc(=O)[nH]c2ccccc12",
    "assayed_system": "human ether-à-go-go-related gene (hERG) potassium channel (human)",
    "observed_value": "-14.3%"
  },
  {
    "molecule": "C=CCn1c(-c2cccnc2Cl)nc2ccccc21",
    "assayed_system": "human ether-à-go-go-related gene (hERG) potassium channel (human)",
    "observed_value": "8.48%"
  },
  {
    "molecule": "O=C(NCCc1nc2ccccc2[nH]1)c1ccc([N+](=O)[O-])cc1",
    "assayed_system": "human ether-à-go-go-related gene (hERG) potassium channel (human)",
    "observed_value": "-56.8%"
  },
  {
    "molecule": "Cc1ccc(NC(=O)NNC(=O)c2cc3ccccc3cc2O)c(C)c1",
    "assayed_system": "human ether-à-go-go-related gene (hERG) potassium channel (human)",
    "observed_value": "27.4%"
  },
  {
    "molecule": "Nc1c2c(nc3sc4c(c13)CCCC4)CCCC2",
    "assayed_system": "human ether-à-go-go-related gene (hERG) potassium channel (human)",
    "observed_value": "-70.4%"
  }
]
